Target: T1, Recombinant purified human matriptase (amino acids 596-855) (human), Q9Y5Y6
T1 chain: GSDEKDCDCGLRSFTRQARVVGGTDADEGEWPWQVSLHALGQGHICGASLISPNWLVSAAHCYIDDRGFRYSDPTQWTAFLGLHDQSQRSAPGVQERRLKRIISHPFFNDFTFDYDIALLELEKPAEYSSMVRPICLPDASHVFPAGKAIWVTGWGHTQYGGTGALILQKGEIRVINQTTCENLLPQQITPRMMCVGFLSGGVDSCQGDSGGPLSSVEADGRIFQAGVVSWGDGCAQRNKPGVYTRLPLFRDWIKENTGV
Assay: enzyme inhibition, 1 nM enzyme, Boc-Gln-Ala-Arg-AMC substrate
experimental endpoint: IC50 (µM)
Give the number; µM is assumed, so skip it.

Return value of IC50 for input RQAR (modifications not checked) [RQAR-ketobenzothiazole] , no commentary.
0.029
